# Test system: SW620 cells (Trop-2 non-expressing)
# assay.protocol: Cytotoxicity of ADCs (CellTiter-Glo), SW620
# Assay type: cell-based
# condition.summary: Table 12; SW620 (Trop-2−); 96 hours after treatment
measured.attribute: Ab-IC50 (µg/mL)
Numbers only, in µg/mL.

Q) Could you share which Ab-IC50 value was measured for h7E6-SVGN-TG1-vcMMAD: h7E6_SVGN hIgG1 with TG1 tag conjugated with AcLys-vcMMAD (conjugate) VH: QVQLQESGPGLVKPSETLSLTCTVSGGSISSYGVHWIRQPPGKGLEWIGVIWTSGVTDYNSALMGRVTISVDTSKNQFSLKLSSVTAADTAVYYCARDGDYDRYTMDYWGQGTLVTVSS VL: DIVMTQSPDSLAVSLGERATINCRASKSVSTSNYSYMHWYQQKPGQPPKLLIYLASNLESGVPDRFSGSGSGTDFTLTISSLQAEDVAVYYCQHSRELPYTFGQGTKLEIK ?
A) 10.410
